Taken from BindingDB's records for doi:10.1021/jm00055a008.

target: Tetracycline efflux protein TetA(B) (Escherichia coli); experiment: Inhibition of [3H]tetracycline uptake into everted membrane vesicles, prepared from tetracycline resistant Escherichia coli D1-209
assay_endpoint: IC50 (nM)
Answers are plain numbers, in nM.

Use these answered entries as a reference point.
CN(C)[C@@H]1C(=O)C(C(N)=O)C(=O)[C@@]2(O)C(=O)C3C(=O)c4c(O)cccc4[C@H](CSc4ccc(Cl)cc4)C3[C@H](O)C12 (some centres not stated) : 1600
CSC[C@H]1c2cccc(O)c2C(=O)C2C(=O)[C@]3(O)C(=O)C(C(N)=O)C(=O)[C@@H](N(C)C)C3[C@@H](O)C21 (some centres not stated) : 7900
COc1ccc(SC[C@H]2c3cccc(O)c3C(=O)C3C(=O)[C@]4(O)C(=O)C(C(N)=O)C(=O)[C@@H](N(C)C)C4[C@@H](O)C32)cc1 (some centres not stated) : 1200
CN(C)[C@@H]1C(=O)C(C(N)=O)C(=O)[C@@]2(O)C(=O)C3C(=O)c4c(O)cccc4[C@H](CSC(C)(C)C)C3[C@H](O)C12 (some centres not stated) : 500

Batch: IC50 for all items listed.
1. CCCCSC[C@H]1c2cccc(O)c2C(=O)C2C(=O)[C@]3(O)C(=O)C(C(N)=O)C(=O)[C@@H](N(C)C)C3[C@@H](O)C21 (some centres not stated)
2. CN(C)[C@@H]1C(=O)C(C(N)=O)C(=O)[C@@]2(O)C(=O)C3C(=O)c4c(O)cccc4[C@H](CSc4ccccc4)C3[C@H](O)C12 (some centres not stated)
3. CN(C)[C@@H]1C(=O)C(C(N)=O)C(=O)[C@@]2(O)C(=O)C3C(=O)c4c(O)cccc4[C@H](CS(=O)(=O)Cc4ccccc4)C3[C@H](O)C12 (some centres not stated)

1: 800; 2: 6900; 3: 1500

* * *

biological target: Tetracycline efflux protein TetA(B) (Escherichia coli); test: Inhibition of [3H]tetracycline uptake into everted membrane vesicles, prepared from tetracycline resistant Escherichia coli D1-209
assay_endpoint: pIC50
One number for each entry, as −log10 of the molar value.

CN(C)[C@@H]1C(=O)C(C(N)=O)C(=O)[C@@]2(O)C(=O)C3C(=O)c4c(O)cccc4[C@H](CSCc4ccc(Cl)cc4)C3[C@H](O)C12 (stereo partly drawn) : 5.68
CN(C)[C@@H]1C(=O)C(C(=O)NCN2CCOCC2)C(=O)[C@@]2(O)C(=O)C3C(=O)c4c(O)cccc4[C@H](CSC4CCCC4)C3[C@H](O)C12 (stereo partly drawn) : 6.00

The recorded pIC50 with Tetracycline efflux protein TetA(B) (Escherichia coli) for CN(C)[C@@H]1C(=O)C(C(N)=O)C(=O)[C@@]2(O)C(=O)C3C(=O)c4c(O)cccc4[C@H](CSCCC(=O)O)C3[C@H](O)C12 (stereo partly drawn) was 4.36
